- TARGET SYSTEM: 14-3-3σ/C-RAF (Homo sapiens, UniProt P31947)
- Construct: The 14-3-3 σ isoform (full-length for mass spectrometry and fluorescence anisotropy assays, ΔC for crystallography); made in house; host or cells: E. coli Rosetta 2(DE3)pLysS, pPROEX HTb vector
- Sequence (P31947 1-248): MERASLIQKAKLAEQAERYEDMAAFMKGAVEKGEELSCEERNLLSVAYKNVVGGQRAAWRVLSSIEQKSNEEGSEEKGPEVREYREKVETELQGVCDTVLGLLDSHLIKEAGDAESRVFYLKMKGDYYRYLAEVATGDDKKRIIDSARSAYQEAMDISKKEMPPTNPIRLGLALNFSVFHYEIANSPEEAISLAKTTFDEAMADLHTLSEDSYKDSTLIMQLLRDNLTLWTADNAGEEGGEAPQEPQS
- EXPERIMENTAL DETAILS: Mass spectrometry dose response, compound binding to 14-3-3σ in the presence of C-RAF phosphopeptide
- EXPERIMENTAL SETUP: 100 nM compound, 100 nM 14-3-3σ, C-RAF peptide 18 µM, 8h
So I've got a bunch of compounds here, and I need their Percentage (%) bound of compound to 14-3-3σ, CRAF 8h values.
Answers are plain numbers, in %.

Study these solved cases before continuing.
CC(C)(Nc1ccc(Cl)cc1)C(=O)N1CCC(CNC(=O)CCl)CC1 [compound 84] ... 1.0
O=C(CCl)N1CC2(CCN(C(=O)C3(Nc4ccc(Cl)cc4)CCOCC3)CC2)C1 [compound 160] ... 1.9

Switching to the query record.
INPUT: What value of measured Percentage (%) bound of compound to 14-3-3σ, CRAF 8h is listed for O=C(CCl)NCC1CCN(C(=O)C2(Nc3ccc(Cl)cc3)CCCC2)CC1 [compound 118] ?
OUTPUT: 3.4

----------
So I've got a bunch of compounds here, and I need their Percentage (%) bound of compound to 14-3-3σ, CRAF 24h values.
- TARGET SYSTEM: 14-3-3σ/C-RAF (Homo sapiens, UniProt P31947)
- Construct: The 14-3-3 σ isoform (full-length for mass spectrometry and fluorescence anisotropy assays, ΔC for crystallography); made in house; host or cells: E. coli Rosetta 2(DE3)pLysS, pPROEX HTb vector
- EXPERIMENTAL DETAILS: Mass spectrometry dose response, compound binding to 14-3-3σ in the presence of C-RAF phosphopeptide
- EXPERIMENTAL SETUP: 100 nM compound, 100 nM 14-3-3σ, C-RAF peptide 18 µM, 24h
One number for each entry, in %.

Study these solved cases before continuing.
O=C(CCl)NCC1CCN(C(=O)C2(Nc3ccccc3)CCCCC2)CC1 ... 0
O=C(CCl)NCC1CCN(C(=O)C2(Oc3ccccc3)CCCC2)CC1 ... 53.6
Cl.O=C(CCl)NCC1CCN(C(=O)C2(Nc3ccccc3)CCNCC2)CC1 ... 1.1
CC(C)(Oc1ccc(Cl)cc1)C(=O)N1CCC(CNC(=O)CCl)CC1 ... 28.3
CC(C)(Nc1ccc(Cl)cc1)C(=O)N1CCC(CNC(=O)CCl)CC1 ... 3.3

# batch: return Percentage (%) bound of compound to 14-3-3σ, CRAF 24h for each of the 4 compounds below
1. O=C(CCl)NCC1CCN(C(=O)C2(Oc3ccc(Cl)cc3)CC2)CC1
2. O=C(CCl)NCCCC1CCN(C(=O)C2(Nc3ccc(Cl)cc3)CCNCC2)CC1
3. CC1(C)CC(Nc2ccc(Cl)cc2)(C(=O)N2CCC(CNC(=O)CCl)CC2)CC(C)(C)O1
4. CC(C)(Oc1ccc(Cl)cc1)C(=O)N1CCC(CCCNC(=O)CCl)CC1

OUTPUT:
1: 2.3; 2: 0; 3: 1.0; 4: 18.9
